For each entry below, report its cAMP EC50 (1.0% HSA) value.
Biological target: T1, human GIP receptor (human, UniProt P48546 22-466)
T1 sequence (looked up): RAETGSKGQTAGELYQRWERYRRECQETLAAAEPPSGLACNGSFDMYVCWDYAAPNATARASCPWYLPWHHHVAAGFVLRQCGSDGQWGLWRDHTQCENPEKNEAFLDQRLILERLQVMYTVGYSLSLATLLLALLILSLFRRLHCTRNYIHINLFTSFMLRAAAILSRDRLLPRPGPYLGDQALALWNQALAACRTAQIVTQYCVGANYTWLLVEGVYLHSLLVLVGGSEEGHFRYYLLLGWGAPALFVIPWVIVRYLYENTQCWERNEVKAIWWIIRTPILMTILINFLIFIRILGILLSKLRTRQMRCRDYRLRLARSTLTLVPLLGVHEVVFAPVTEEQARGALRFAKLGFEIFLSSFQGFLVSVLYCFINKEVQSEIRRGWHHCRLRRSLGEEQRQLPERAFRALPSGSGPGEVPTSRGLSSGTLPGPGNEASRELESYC
Test: cell-based or functional assay
Give the value, in units of nM, as a plain number.

Per the records, this binder ( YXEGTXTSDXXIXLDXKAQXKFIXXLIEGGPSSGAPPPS (Y-Aib-EGT-αMeF(2F)-TSD-4Pal-Aib-I-αMeL-LD-Orn-K((2-[2-(2-Amino-ethoxy)-ethoxy]-acetyl)2-(γ-Glu)-(10-(4-carboxyphenoxy)decanoyl))AQ-Aib-K((2-[2-(2-Amino-ethoxy)-ethoxy]-acetyl)2-(γ-Glu)-(10-(4-carboxyphenoxy)decanoyl))FI-(D-Glu)-αMeY-LIEGGPSSGAPPPS-NH2) [Example 243] ) has cAMP EC50 (1.0% HSA) equal to 0.728

Per the records, this binder ( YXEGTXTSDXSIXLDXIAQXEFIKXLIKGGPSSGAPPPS (Y-Aib-EGT-αMeF(2F)-TSD-2Nal-SI-αMeL-LD-Orn-IAQ-Aib-EFIK((2-[2-(2-Amino-ethoxy)-ethoxy]-acetyl)2-(γ-Glu)-CO-(CH2)12-CO2H)-αMeY-LIK((2-[2-(2-Amino-ethoxy)-ethoxy]-acetyl)2-(γ-Glu)-CO-(CH2)12-CO2H)GGPSSGAPPPS-NH2) [Example 252] ) has cAMP EC50 (1.0% HSA) equal to 29.9

Per the records, this binder ( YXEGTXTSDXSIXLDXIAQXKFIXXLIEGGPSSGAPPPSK (Y-Aib-EGT-αMeF(2F)-TSD-4Pal-SI-αMeL-LD-Orn-IAQ-Aib-K((2-[2-(2-Amino-ethoxy)-ethoxy]-acetyl)2-(y-Glu)-(10-(4-carboxyphenoxy)decanoyl))FI-(D-Glu)-αMeY-LIEGGPSSGAPPPSK((2-[2-(2-Amino-ethoxy)-ethoxy]-acetyl)2-(γ-Glu)-(10-(4-carboxyphenoxy)decanoyl))-NH2) [Example 276] ) has cAMP EC50 (1.0% HSA) equal to 1.97

Per the records, this binder ( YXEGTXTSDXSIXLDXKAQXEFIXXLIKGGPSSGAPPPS (Y-Aib-EGT-αMeF(2F)-TSD-OMeY-SI-αMeL-LD-Orn-K((2-[2-(2-Amino-ethoxy)-ethoxy]-acetyl)2-CO-(CH2)12-CO2H)AQ-Aib-EFI-(D-Glu)-αMeY-LIK((2-[2-(2-Amino-ethoxy)-ethoxy]-acetyl)2-CO-(CH2)12-CO2H)GGPSSGAPPPS-NH2 …) [Example 266] ) has cAMP EC50 (1.0% HSA) equal to 0.575

Per the records, this binder ( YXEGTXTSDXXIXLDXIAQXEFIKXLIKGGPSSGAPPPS (Y-Aib-EGT-αMeF(2F)-TSD-4Pal-Aib-I-αMeL-LD-Orn-IAQ-Aib-EFIK((2-[2-(2-Amino-ethoxy)-ethoxy]-acetyl)2-(γ-Glu)-CO-(CH2)12-CO2H)-αMeY-LIK((2-[2-(2-Amino-ethoxy)-ethoxy]-acetyl)2-(γ-Glu)-CO-(CH2)12-CO2H)GGPSSGAPPPS-NH2) [Example 219] ) has cAMP EC50 (1.0% HSA) equal to 2.86

Per the records, this binder ( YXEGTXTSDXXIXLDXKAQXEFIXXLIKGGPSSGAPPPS (Y-Aib-EGT-αMeF(2F)-TSD-4Pal-Aib-I-αMeL-LD-Orn-K((2-[2-(2-Amino-ethoxy)-ethoxy]-acetyl)2-(γ-Glu)-CO-(CH2)10-CH3)AQ-Aib-EFI-(D-Glu)-αMeY-LIK((2-[2-(2-Amino-ethoxy)-ethoxy]-acetyl)2-(γ-Glu)-CO-(CH2)10-CH3)GGPSSGAPPPS-NH2) [Example 334] ) has cAMP EC50 (1.0% HSA) equal to 0.618

Per the records, this binder ( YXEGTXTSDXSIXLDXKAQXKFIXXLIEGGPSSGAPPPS (Y-Aib-EGT-αMeF(2F)-TSD-2Nal-SI-αMeL-LD-Orn-K((2-[2-(2-Amino-ethoxy)-ethoxy]-acetyl)2-(γ-Glu)-CO-(CH2)12-CO2H)AQ-Aib-K((2-[2-(2-Amino-ethoxy)-ethoxy]-acetyl)2-(γ-Glu)-CO-(CH2)12-CO2H)FI-(D-Glu)-αMeY-LIEGGPSSGAPPPS-NH2) [Example 249] ) has cAMP EC50 (1.0% HSA) equal to 5.88

Per the records, this binder ( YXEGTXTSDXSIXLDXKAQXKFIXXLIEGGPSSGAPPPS (Y-Aib-EGT-αMeF(2F)-TSD-OMeY-SI-αMeL-LD-Orn-K((2-[2-(2-Amino-ethoxy)-ethoxy]-acetyl)2-(γ-Glu)-CO-(CH2)12-CO2H)AQ-Aib-K((2-[2-(2-Amino-ethoxy)-ethoxy]-acetyl)2-(γ-Glu)-CO-(CH2)12-CO2H)FI-(D-Glu)-αMeY-LIEGGPSSGAPPPS-NH2) [Example 259] ) has cAMP EC50 (1.0% HSA) equal to 2.34

Entry source: patent US20230265151A1
